test system: OVCAR-3; experiment: NCI tumour cell line growth inhibition, 48 h
The source made the active and inactive calls. Rule as the data show it: active = GI50 up to about 1.1 µM and inactive = higher.
Here, each record is paired with measured GI50 data.
endpoint.label: GI50

compound	result
CC[C@@]1(O)C[C@H](OC2CC(N(C)C)C(OC3CC(O)C(OC4CC(O)C(O)C(C)O4)C(C)O3)C(C)O2)c2c(cc3c(c2O)C(=O)c2c(O)ccc(O)c2C3=O)[C@H]1C(=O)OC (some centres undefined)	0.0321 µM (active)
C=CC[C@@]1([C@H](C=C)COCc2ccc(OC)cc2)CC[C@]2(C)OC(C)(C)[C@@H](c3ccccc3)N2C1=S	59.4 µM (inactive)
CC(=O)Nc1nnc(S(C)(=O)=O)s1	> 100 µM (inactive)
COc1c2c(cc3c1OCO3)[C@]13C=C[C@H](OC)C[C@H]1N(C2)CC3O (some centres undefined)	> 100 µM (inactive)

====

Here, each record is paired with measured GI50 data.
tested on: A549; assay: NCI tumour cell line growth inhibition, 48 h
Active and inactive are the calls of the source. Cut-off read from the data, not from the text of the source: active = GI50 up to about 1.1 µM and inactive = higher.
endpoint.label: GI50

compound	experimental.system	endpoint.label	result
N#CC(NNC(=O)c1ccccc1O)c1ccc(O)cc1 (stereo not given)	A549	GI50	2.74 µM (inactive)
NC(=O)N/N=C(\Cc1nc2ccc(Cl)cc2nc1O)C(=O)Nc1ccc(Cl)cc1Cl	A549	GI50	> 100 µM (inactive)
CC(C)=CC(Cc1ccccc1)S(=O)(=O)c1nc2ccccc2s1 (stereo not given)	A549	GI50	23.4 µM (inactive)
CCP(C)(=O)CC	A549	GI50	> 100 µM (inactive)
CNS(=O)(=O)NN(C)S(=O)(=O)c1ccc(Cl)cc1	A549	GI50	> 100 µM (inactive)
Nc1nc(SC/C=C/c2ccccc2)c2[nH]cnc2n1	A549	GI50	> 100 µM (inactive)
Cc1ccsc1/C=N/Nc1ccc2ccccc2n1	A549	GI50	7.43 µM (inactive)
COc1cccc(/C=N/n2c(Cc3ccc(Cl)cc3)n[nH]c2=O)c1	A549	GI50	58.6 µM (inactive)
O=C1OCC2OC(=O)c3cc(O)c(O)c(O)c3-c3c(O)c(O)c(O)c4c3C(=O)OC(C2OC(=O)c2cc(O)c(O)c(O)c2-c2c1cc(O)c(O)c2O)C1OC(=O)c2c-4c(O)c(O)c(O)c2[C@@H]1C(O)C(O)C(O)C(O)CO (stereo not given in full)	A549	GI50	16.4 µM (inactive)
CCOC(=O)C(=CNc1ccc(NC2=NCC(C)S2)cc1)C(=O)OCC (stereo not given)	A549	GI50	35.6 µM (inactive)

====

system: MDA-N; test: NCI tumour cell line growth inhibition, 48 h
Activity calls are given as the source filed them. No stated cut-off is given here; in the data, active = GI50 up to about 1.1 µM and inactive = higher.
Possible outcomes: yes (1) for active, no (0) for inactive

compound	experimental.system	class.assignment
C[B@@-]1(c2ccc(C(F)(F)F)cc2)N[C@@H](Cc2ccccc2)C(=O)O1	MDA-N	no (0)
C[n+]1cccc(/C=C/c2ccc3cccc(O)c3n2)c1	MDA-N	no (0)
Cc1cc(S(=O)(=O)[N-]C(=C(C#N)C#N)[n+]2ccc(N(C)C)cc2)c(SCC(=O)O)cc1Cl	MDA-N	no (0)
NC1=C(N2CCCCC2)C(=O)NC2=N/C(=C\c3ccco3)C(=O)N21	MDA-N	no (0)
Cc1csc(-c2cn(C)c3c2C(=O)C(=N)C=C3O)n1	MDA-N	no (0)
CN(C)/C=N/S(=O)(=O)c1nn2c(C=O)c(-c3cc4ccccc4oc3=O)nc2s1	MDA-N	no (0)
CNC(=O)CCCNC(=O)CCCC(=O)OC	MDA-N	no (0)
NC(=O)N/N=C(\Cc1nc2ccc(Cl)cc2nc1O)C(=O)Nc1ccc(Cl)cc1Cl	MDA-N	no (0)
OCC1OC(NC(=S)NCSCCC(F)(F)C(F)(F)C(F)(F)C(F)(F)C(F)(F)C(F)(F)F)C(O)C(O)C1O (configuration not stated)	MDA-N	no (0)
Cc1nnc(N)s/c1=N/O	MDA-N	no (0)
CC1(C)O[C@H]2OC(CO[Si](C)(C)C(C)(C)C)C(N=[N+]=[N-])[C@H]2O1 (some centres not stated)	MDA-N	no (0)
O=C(/C=C/c1ccccc1)CCc1c(O)c2ccccc2oc1=O	MDA-N	no (0)
O=C(Nc1nn(C(=O)c2ccc(Cl)cc2)c(=O)s1)c1ccc(Cl)cc1	MDA-N	no (0)
CS(=O)(=O)c1ccc(/C=N/NC(N)=S)cc1	MDA-N	no (0)
COC(=O)C1CCC(=O)N1C(c1ccc(OC)cc1)c1cc(OC)c(OC)c(OC)c1 (configuration not stated)	MDA-N	yes (1)
O=P1(O)C=CC2(CCCC2)O1	MDA-N	no (0)
Oc1ccc2ccccc2c1-c1nnc(CCCCCCCCc2nnc(-c3c(O)ccc4ccccc34)o2)o1	MDA-N	no (0)
O=C1C=C(Br)C(=O)C12CCc1ccccc12 (configuration not stated)	MDA-N	no (0)
Cc1ccc2c(O)cc(-c3cccs3)nc2n1	MDA-N	no (0)
CC1CCCN(CP(=O)(c2ccccc2)c2ccccc2)C1 (configuration not stated)	MDA-N	no (0)
CN(/N=C(\C(=O)O)c1ccccc1)C1=NCCCCN1	MDA-N	no (0)
Cn1c(=O)c2nc(SCc3ccccn3)[nH]c2n(C)c1=S	MDA-N	no (0)
OCCN1CCN(c2nc(N3CCCC3)c3nc(Cl)c(NCc4ccccc4)nc3n2)CC1	MDA-N	no (0)
C=CCN1C[C@@H](C)N([C@@H](c2ccccc2)c2ccc(C(=O)N(CC)CC)cc2)C[C@@H]1C	MDA-N	no (0)
OCC1NCC(O)C(O)C1O (configuration not stated)	MDA-N	no (0)
C/C(=N\N=C(/S)N(C)C)c1cccc[n+]1[O-]	MDA-N	no (0)
COC1OC(COC(=O)c2cc(O)c(O)c(O)c2)C(OC(=O)c2cc(O)c(O)c(O)c2)C(OC(=O)c2cc(O)c(O)c(O)c2)C1OC(=O)c1cc(O)c(O)c(O)c1 (configuration not stated)	MDA-N	no (0)
CC(=O)C(=NNc1ccc(-n2c(C)nc3ccccc3c2=O)cc1)C(C)=O	MDA-N	no (0)
N#CC(C#N)=Cn1c(=S)[nH]c2ccccc21	MDA-N	no (0)
CC(=O)[C@]1(O)Cc2c(O)c3c(c(O)c2C(OC2OC(C)C(O)C(O)C2F)C1)C(=O)c1ccccc1C3=O (some centres not stated)	MDA-N	yes (1)
C[C@]12CC[C@@H]3c4cc(Br)c(O)c(Br)c4CC[C@H]3[C@@H]1CC(Br)C2=O (some centres not stated)	MDA-N	no (0)
CCOC(=O)NC(Nc1ccc(C(=O)O)cc1)(C(F)(F)F)C(F)(F)F	MDA-N	no (0)
CC(=O)OCC1OC(OC2CC3C(C)(C)C(OC(C)=O)CC[C@]3(C)C3CCC45CC4(CCC5[C@@H](C)C[C@H](O)C(O)C(C)(C)O)[C@]23C)C(O)C(O)C1O (some centres not stated)	MDA-N	no (0)
COc1cccc(/C=N/n2c(Cc3ccc(Cl)cc3)n[nH]c2=O)c1	MDA-N	no (0)
C=C(C)COc1cc(/N=C(/S)OC(C)C)ccc1Cl	MDA-N	no (0)
COc1ccc(N2C=Nn3c(nc4sc5c(c4c3=O)CCCC5)C2)cc1	MDA-N	no (0)
O=[N+]([O-])c1ccc(S(=O)(=O)Cc2ccccc2)c2nonc12	MDA-N	no (0)
O=C(/C=C1\N=C(c2ccccc2)N(c2nc3c(Cl)cc(Cl)cc3s2)C1=O)/C=C/c1ccccc1	MDA-N	no (0)
O=C(/C=C/c1ccccc1)C[C@@H](O)C[C@@H]1CC=CC(=O)O1	MDA-N	no (0)
C=C1CN=C(Nc2ccc(Cl)cc2)S1	MDA-N	no (0)
C1=N\c2ccc(cc2)-c2ccc(cc2)/N=C\c2ccc(cc2)OCc2cccc(n2)COc2ccc/1cc2	MDA-N	no (0)
CCCCON1C[C@H](OC(C)=O)C(OC(C)=O)[C@H](OC(C)=O)C1 (some centres not stated)	MDA-N	no (0)

====

tested on: SK-MEL-2; experiment: NCI tumour cell line growth inhibition, 48 h
Active and inactive are the calls of the source. No stated cut-off is given here; in the data, active = GI50 up to about 1.1 µM and inactive = higher.
Here, each record is paired with measured GI50 data.

compound	GI50
Nc1ncnc2c1ncn2[C@@H]1O[C@H](C(=O)O)[C@@H](O)[C@H]1O	> 100 µM (inactive)
O=C(CC(=O)n1nc(-c2ccccc2)c(/N=N/c2ccccc2Cl)c1-c1ccccc1)Nc1ccc(Cl)cc1	> 100 µM (inactive)
O=C1OCC2OC(=O)c3cc(O)c(O)c(O)c3-c3c(O)c(O)c(O)c4c3C(=O)OC(C2OC(=O)c2cc(O)c(O)c(O)c2-c2c1cc(O)c(O)c2O)C1OC(=O)c2c-4c(O)c(O)c(O)c2[C@@H]1C(O)C(O)C(O)C(O)CO (stereo partly drawn)	21.6 µM (inactive)
c1ccc(C(c2cccc3c2ccc2ccccc23)C(c2ccccc2)c2cccc3c2ccc2ccccc23)cc1 (stereo not drawn)	> 100 µM (inactive)
COc1ccc2oc(S(=O)(=O)N3CC(CCl)c4ccc(N)cc43)cc2c1 (stereo not drawn)	< 0.0443 µM (active)
CN(C)/C=N/S(=O)(=O)c1nn2c(C=O)c(-c3cc4ccccc4oc3=O)nc2s1	11.9 µM (inactive)
COc1cc(C(=O)O)ccc1OS(=O)(=O)O	> 100 µM (inactive)
CCOC(=O)C1(C(=O)OCC)C=C(c2ccccc2)N(C2OC(COC(C)=O)C(OC(C)=O)C(OC(C)=O)C2OC(C)=O)C1=S (stereo not drawn)	36.8 µM (inactive)
